Quick reference: solubility of the listed items.
experiment: Water solubility; format: physicochemical; settings: PBS, aqueous buffer; read-out: water solubility, PBS

# compound, solubility
records = [
    ("COc1cc2cc(C(=O)CC(C)C(=O)O)[se]c2cc1OC (stereo not drawn)", "1000 µg/mL"),
    ("COc1cc2cc(C(=O)CCC(=O)O)[se]c2cc1OC", "1900 µg/mL"),
    ("CCC(CC(=O)c1cc2cc(OC)c(OC)cc2[se]1)C(=O)O (stereo not drawn)", "700 µg/mL"),
]

----------
assay: Water solubility; type: physicochemical; conditions: water; read-out: water solubility, Water

# compound, solubility, µg/mL
data = [
    ("COc1cc2cc(C(=O)CCC(=O)O)[se]c2cc1OC [I-1]", 36),
    ("CCC(CC(=O)c1cc2cc(OC)c(OC)cc2[se]1)C(=O)O (stereo not drawn) [I-14]", 28),
    ("COc1cc2cc(C(=O)CC(C)C(=O)O)[se]c2cc1OC (stereo not drawn) [I-2]", 30),
]

----------
Quick reference: logP of the listed items.
assay: LogP; format: physicochemical; settings: read-out: LogP

# molecule, logP
rows = [
    ("COc1cc2cc(C(=O)CCC(=O)O)[se]c2cc1OC", 2.5),
    ("COc1cc2cc(C(=O)CC(C)C(=O)O)[se]c2cc1OC (stereo not drawn)", 2.4),
    ("CCC(CC(=O)c1cc2cc(OC)c(OC)cc2[se]1)C(=O)O (stereo not drawn)", 2.7),
]

Numbers sourced from patent US12606538B2.
